# System: PC-3 prostate
# assay.text: NCI-60 one-dose screen, 48 h
# recorded.conditions: 10 µM unless noted
This is part of a sample that, as a whole, favours compounds with a hit. Of some 83,000 tested, about 20% had one in any assay. Calls of active or inactive are those of the source. The calls were made as follows: active = growth percent below 10; inactive = the rest.
The reply should be one of these categories: active, inactive

Illustrative cases are given below, each with its answer.
>  <compound>
N#Cc1nc(-c2ccccc2)oc1S(=O)(=O)N1CCOCC1

>  <class.label>
inactive

$$$$
>  <compound>
COc1cc(-n2cc(-c3cc(O)c(C/C=C(\C)CCC=C(C)C)c(O)c3)nn2)cc2c1O[C@]1(C)CC[C@@H](O)C(C)(C)[C@H]1C2

>  <class.label>
inactive

$$$$
>  <compound>
COc1cc(CNS(=O)(=O)c2ccc(C)cc2)ccc1OCc1cn(-c2ccc(F)cc2)nn1

>  <class.label>
inactive

$$$$
>  <compound>
C1=CN2CC(c3ccccc3)=NNC2c2ccccc21 (centres undefined)

>  <class.label>
inactive

$$$$
>  <compound>
COC(=O)c1c2c(c[n+]([O-])c1C)C(=O)C(NCc1ccccc1)=CC2=O

>  <class.label>
active

$$$$
>  <compound>
COc1cc(NC(C)CCCNC(C)C)c2ncccc2c1OC (centres undefined)

>  <class.label>
inactive

$$$$

Qu. Short answer needed: outcome of this test for O=C(Cn1cc(CN2CCCCCC2)nn1)Nc1ccc2c(ccn2Cc2ccccc2)c1 ?
Ans. inactive

Qu. Short answer needed: outcome of this test for CC1(c2ccccc2O)NN=C(/N=C/c2cccc([N+](=O)[O-])c2)N1C(Cc1c[nH]c2ccccc12)C(=O)O (centres undefined) ?
Ans. inactive

Qu. Short answer needed: outcome of this test for CCNC(=O)c1[nH]cc(-c2ccccc2)c1-c1cc(OC)c2c(c1OC)OCO2 ?
Ans. inactive

Qu. Short answer needed: outcome of this test for CC(C)(C)[Si](C)(C)O[C@H]1C(=O)C=CN2CC=C[C@@H]12 ?
Ans. inactive

Qu. Short answer needed: outcome of this test for C=C(C)[C@@H]1CC[C@]2(C(=O)NCCNCCN)CC[C@]3(C)[C@H](CC[C@@H]4[C@@]5(C)C/C(=C/c6ccncc6)C(=O)C(C)(C)[C@@H]5CC[C@]43C)[C@@H]12 ?
Ans. inactive

Qu. Short answer needed: outcome of this test for O=C(Nc1cc(Cl)ccc1O)c1ccc(Nc2ccnc(C(F)(F)F)c2)cc1 ?
Ans. inactive

Qu. Short answer needed: outcome of this test for CC(C)N1CCN(Cc2ccc3c(NNC(=O)c4ccccc4)nc4cc(F)ccc4n23)CC1 ?
Ans. inactive

Qu. Short answer needed: outcome of this test for O=C(/C=C/c1cn(-c2ccccc2)nc1-c1ccc([N+](=O)[O-])cc1)c1ccc(Cl)cc1 ?
Ans. inactive

Qu. Short answer needed: outcome of this test for CC1(C)CCC(S(=O)(=O)c2ccc3c(c2)/C(=N\O)c2cc(S(=O)(=O)N4CCC(O)(c5cccc(C(F)(F)F)c5)CC4)ccc2-3)CC1 ?
Ans. active

Qu. Short answer needed: outcome of this test for Brc1ccc(-n2cc(-c3nn[nH]n3)c(-c3cccs3)n2)cc1 ?
Ans. inactive

Qu. Short answer needed: outcome of this test for O=C(O)[C@@H]1c2ccccc2-c2ccccc2[C@H]1C(=O)O ?
Ans. inactive

Qu. Short answer needed: outcome of this test for CN(C)c1ccc(/C=C/C(=O)c2ccc(-n3cc(CN4CCN(c5cc6c(cc5F)c(=O)c(C(=O)O)cn6C5CC5)CC4)nn3)cc2)cc1 ?
Ans. inactive

Qu. Short answer needed: outcome of this test for O=S(=O)(NCCNc1cc(-c2c(-c3cccc(O)c3)nc3sccn23)ccn1)c1ccc(C(F)(F)F)cc1 ?
Ans. inactive

Qu. Short answer needed: outcome of this test for CNc1nc(S(=O)c2ccc(C#N)cc2)nc2ccccc12 (centres undefined) ?
Ans. inactive

Qu. Short answer needed: outcome of this test for Cc1cc2c(O)c(-c3cccc(Cl)c3)c3sc(=O)oc3c2cc1C ?
Ans. inactive

Qu. Short answer needed: outcome of this test for Cc1cccc2c1NC(=O)C2(c1ccc(O)cc1)c1ccc(O)cc1 ?
Ans. inactive

Qu. Short answer needed: outcome of this test for CCCC(O)Cn1ncc(C(=O)OCC)c1NC(=O)NCc1ccccc1F (centres undefined) ?
Ans. inactive

Qu. Short answer needed: outcome of this test for Fc1cccc(CNc2c3ccccc3nc3ccccc23)c1F ?
Ans. inactive

Qu. Short answer needed: outcome of this test for O=C(c1ccc(Cl)cc1)N1CCN(c2ccnc3cc(Cl)ccc23)CC1 ?
Ans. inactive

Qu. Short answer needed: outcome of this test for NC(=O)c1c(NC(=O)c2ccccc2)sc2c1CCC(=O)C2 ?
Ans. inactive

Qu. Short answer needed: outcome of this test for COc1cc2c(c(OC)c1OC)-c1ccc(OC)c(=O)cc1[C@@H](NC(=O)CCl)CC2 ?
Ans. inactive

Qu. Short answer needed: outcome of this test for COc1ccc(CC(C#N)c2cc3ccccc3[nH]2)cc1 (centres undefined) ?
Ans. inactive
